Tested on: red blood cell
Assay: Red blood cell reducing capability of refractive index adjuster (hematocrit value change)
Type: cell-based
Condition details: 50 mM in blood sample, hematocrit value 40 before addition, 5 minutes after mixing
A collection of compounds and their measured Red blood cell reducing capability (ΔHt)
Kindly provide the number alone.

Below are worked cases with known answers.
1. O=S(=O)(O)c1cc(S(=O)(=O)O)c2c(/N=N/c3ccccc3)c(O)ccc2c1; 1.9
2. O=C([O-])C1=NN(c2ccc(S(=O)(=O)[O-])cc2)C(=O)C1N=Nc1ccc(S(=O)(=O)[O-])cc1.[Na+].[Na+].[Na+] (stereo not drawn); 8.2
3. O=S(=O)(O)c1cccc(S(=O)(=O)O)c1 [DSB, 1,3-benzene disulfonate]; 9.0
4. OC[C@H]1O[C@H](O[C@]2(CCl)O[C@H](CCl)[C@@H](O)[C@@H]2O)[C@H](O)[C@@H](O)[C@H]1Cl; 0.5

# Red blood cell reducing capability (ΔHt) lookup, item OC[C@H]1O[C@H](O[C@H]2O[C@H](CO)[C@@H](O)[C@H](O)[C@H]2O)[C@H](O)[C@@H](O)[C@@H]1O
3.5

What does the record list as Red blood cell reducing capability (ΔHt) for O=S(=O)([O-])c1ccc2c(N=Nc3ccc(S(=O)(=O)[O-])c4ccccc34)c(O)c(S(=O)(=O)[O-])cc2c1.[Na+].[Na+].[Na+] ?
6.7

###

Assay: Degree of solubility with respect to water at 20° C.
Assay type: physicochemical
Measurement label: solubility (mM)
Number only, in mM; omit the unit.

What does the data say about its solubility? Entry: OC[C@H]1O[C@H](O[C@]2(CCl)O[C@H](CCl)[C@@H](O)[C@@H]2O)[C@H](O)[C@@H](O)[C@H]1Cl
820

solubility for OC[C@H]1O[C@H](O[C@H]2O[C@H](CO)[C@@H](O)[C@H](O)[C@H]2O)[C@H](O)[C@@H](O)[C@@H]1O ?
200
